B1: glmS ribozyme (parent)
chain: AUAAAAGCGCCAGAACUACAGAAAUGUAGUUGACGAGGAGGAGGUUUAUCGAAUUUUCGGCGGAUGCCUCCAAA

- Variants of: B1
- assayText: self-cleavage kobs at 640 uM GlcN6P; higher = faster cleavage; RNA array
- conditionNotes: with glucosamine-6-phosphate
Fewer inactive variants are shown than the library holds.
measuredParameter: self-cleavage kobs at 640 uM GlcN6P

## Task Data request, read-out self-cleavage kobs at 640 uM GlcN6P, for AUAAAAGCGCCAGAACUACAGAAAUGUACUUGACGAGGAGGAGGAUUAUCGAAUUUUCGGCGGAUGCCUCCAAA
## Result 0.000828 s⁻¹

## Task Data request, read-out self-cleavage kobs at 640 uM GlcN6P, for AUAAAAGCGCCAGAACUACAGAAAUGUAGUUGACGAGGAGGAGGUUUAUAGAAUUUUCGGCGGAUGUCUCGAAA
## Result 0.000107 s⁻¹

## Task Data request, read-out self-cleavage kobs at 640 uM GlcN6P, for AUAAAAGCGCCAGAACUACAGAAAUGUAGUUGACGUGGAGGAGGUUUCUCGAAUUUUCGGCGGAUGGCUCCAAA
## Result < 1e-05 s⁻¹

## Task Data request, read-out self-cleavage kobs at 640 uM GlcN6P, for AUAAAAGCGCCAGAACUACAGAAAUGUAGUUUACGAGGAGGAGGUUUAUCGAAUUUUCGGCGGAUGCCUCCAAA
## Result 0.000173 s⁻¹

## Task Data request, read-out self-cleavage kobs at 640 uM GlcN6P, for AUAAAAGCGCCAGAGCUACAGAAAUGUAGUUGACGAGGAGGAGUUUUAUCCGAUUGUCGGCGGAUGCCUCCAAA
## Result < 1e-05 s⁻¹

## Task Data request, read-out self-cleavage kobs at 640 uM GlcN6P, for AUAAAUGCUCCAGAACUACAGAAAUGUAGUUGACGAGGAGGAGGUUUAUCGAAUUUUCGGCGGAUGCCUCCAAA
## Result < 1e-05 s⁻¹

## Task Data request, read-out self-cleavage kobs at 640 uM GlcN6P, for AUAAAAGCGCCAGAACUACAGAAAUGUAGUUGACGAGGCGGAGGUUUAUCGUAUUUUCGGCGGAUGCCUCCAAA
## Result 1.71e-05 s⁻¹

## Task Data request, read-out self-cleavage kobs at 640 uM GlcN6P, for AUAAAAGCGCCAGAACUACAGAAAUGUAGUUGAUGGGGAGGAGAUUUAUCGAAUUUUAGGCGGAUGCUUCCAAA
## Result < 1e-05 s⁻¹

## Task Data request, read-out self-cleavage kobs at 640 uM GlcN6P, for AUAAAAGCGCCAGAACUACAGAAAUGUAGUUAACGAGGAUGAGGUUUAUCGAAUUUUCGGCGGAUGGCUCCAAA
## Result < 1e-05 s⁻¹

## Task Data request, read-out self-cleavage kobs at 640 uM GlcN6P, for AUAAAACCGCCAGAACUACAGAAAUGUAGUUGACGAGGAGGAGGUUUAUCGAAUUGUCGGCGGAUGUCUCCAAA
## Result < 1e-05 s⁻¹

## Task Data request, read-out self-cleavage kobs at 640 uM GlcN6P, for AUAAAAGCGCCAGAACUACAGAAAUGUAGUUGACGAGGAGAAGGUUGAUCGAAUUUUCGGCGGAUGCCUCCAAA
## Result 0.00021 s⁻¹

## Task Data request, read-out self-cleavage kobs at 640 uM GlcN6P, for AUAAAAGCGCCAGAACUACAGAAAUGUACUUGACGAGGAGGAGGUUUAUGGAAUUUUCGGCGGAUGCCUCCAAA
## Result 0.000208 s⁻¹

## Task Data request, read-out self-cleavage kobs at 640 uM GlcN6P, for AUAAAAGCGCCAGAACUACAGAAAUGUAGUUGGCGAGGAUGAGGUUUAUCGAAUUUUAGGCGGAUGACUCCAAA
## Result < 1e-05 s⁻¹

## Task Data request, read-out self-cleavage kobs at 640 uM GlcN6P, for AUAAAAGCCCCAGAACUACAGAAAUGUAGUUGACGAGGAGGAGGUUUAUCGAAUUUUCGGCGGAUGCCUUCAAA
## Result < 1e-05 s⁻¹

## Task Data request, read-out self-cleavage kobs at 640 uM GlcN6P, for AUAAAAGCGCCAGAACUACAGAAAUGUAGUUGACGAGGAGGACGUUUAUCGAAUUUUCGCCGGAUGCUUCCAAA
## Result < 1e-05 s⁻¹

## Task Data request, read-out self-cleavage kobs at 640 uM GlcN6P, for AUAAAAGCACCAGAACUACAGAAAUGUAGUUGACGAGGAGGAGGUUUAUCGACUUUUCGGCGGAUGCCUCCAAA
## Result < 1e-05 s⁻¹

## Task Data request, read-out self-cleavage kobs at 640 uM GlcN6P, for AUAAAAGCGCCAGAACUACAGAAAUGUAGUUGACGUGGAGGAGGUUUUUCGAAUUUUCGUCGGAUGCAUCCAAA
## Result < 1e-05 s⁻¹

## Task Data request, read-out self-cleavage kobs at 640 uM GlcN6P, for AUAAAAGCGCCAGAACUACAGAAAUGUAGUUGACGAGGAGGACGUUUAUCGAAUUUUCGGCGGAUGCCUCGAAA
## Result < 1e-05 s⁻¹

## Task Data request, read-out self-cleavage kobs at 640 uM GlcN6P, for AUAAAAGCGCCAGCACUACAGAAAUGUAGUUGACGAGGAGGAGGUUUAUCGAAUUUUCGGCGGAAGCCUUCAAA
## Result 0.000125 s⁻¹

## Task Data request, read-out self-cleavage kobs at 640 uM GlcN6P, for AUAAAAGCGCCAGAACUACAGAAAUGUAGUUGACGAGGAGGAGGUUUAUCGAAUGUUCGGCCGAUGCCUCCAAA
## Result < 1e-05 s⁻¹

## Task Data request, read-out self-cleavage kobs at 640 uM GlcN6P, for AUAAAAGCCCCAGAACUACAGAAAUGUAGUUGAUGAGGAGGAGGUUUACCGAAUUUUCGGCGGAGGCCUCCAAA
## Result < 1e-05 s⁻¹

## Task Data request, read-out self-cleavage kobs at 640 uM GlcN6P, for AUAAAAGCGCCAGAACUACAGAAAUGUAGUUGACGAGGAGGAGGUUUAUCGAAUUUUCGGCGGAUCCUUCCAAA
## Result 5.11e-05 s⁻¹

## Task Data request, read-out self-cleavage kobs at 640 uM GlcN6P, for AUAAAAGAGCCAGAACUACAGAAAUGUAGUUGACGAGCAGGAGGUUUAUCGAAUUUUCGGCGGAUGCCUCCAAA
## Result < 1e-05 s⁻¹

## Task Data request, read-out self-cleavage kobs at 640 uM GlcN6P, for AUAAAAGCGCCAGAACUACAGAAAUGUAGUUGACGAGGAGGAGGUUUAUCCAAAUUACGGCGGAUGCCUCCAAA
## Result < 1e-05 s⁻¹

## Task Data request, read-out self-cleavage kobs at 640 uM GlcN6P, for AUAAAAGCGCCAGAACUACAGAAAUGUAGUUGACGAGGAGGAGGCUGAUCUAAUUUUCGGCGGAUGCCUCCAAA
## Result < 1e-05 s⁻¹

## Task Data request, read-out self-cleavage kobs at 640 uM GlcN6P, for AUAAACGCGCCAGAACUACAGAAAUGUAUUUAACGAGGAGGAGGUUUAUCGAAUUUACGGCGGAUGCCUCCAAA
## Result < 1e-05 s⁻¹

## Task Data request, read-out self-cleavage kobs at 640 uM GlcN6P, for AUAAAACCGCCAGAACUACAGAAAUGUAGUCGACGAGGACGAGGUUUAUCGAAUUUUCGGCGGAUGCCUCCAAA
## Result < 1e-05 s⁻¹

## Task Data request, read-out self-cleavage kobs at 640 uM GlcN6P, for AUAAAAGCGCCAGAACUACAGAAAUGUAGUUGACGAGGAGAAGGUUUAUCGAAUUUUCGGCGAAUGCCUCCAAA
## Result < 1e-05 s⁻¹

## Task Data request, read-out self-cleavage kobs at 640 uM GlcN6P, for AUAAAUGCGCCAGAACUACAGAAAUGUAGUUGACGACGAAGAGGUUUAUCGAAUUUUCGGCGGAUGCCUCCAAA
## Result < 1e-05 s⁻¹

## Task Data request, read-out self-cleavage kobs at 640 uM GlcN6P, for AUAAAAGCGCCCGAACUACAGAAAUGUAGUUGACGAGGAGGAGGUUUAUCGAACUUUCGGCGGAUGCCUCCAAA
## Result 0.0063 s⁻¹

## Task Data request, read-out self-cleavage kobs at 640 uM GlcN6P, for AUAAAAGCGCCAGAACUACAGAAAUGUAGAUGACGAGGAGGAGGUUUAUCGACUUUUCGUCGGAUGCCUCCAAA
## Result < 1e-05 s⁻¹

## Task Data request, read-out self-cleavage kobs at 640 uM GlcN6P, for AUAAAAGCGCCAGGACUACAGAAAUGUAGUUGACGAGGAGGAGGUUUAUUGAAUUUUCGGCGGAUGCCUCCAAA
## Result 3.25e-05 s⁻¹

## Task Data request, read-out self-cleavage kobs at 640 uM GlcN6P, for AUAAAAGCGCCAGAACUACAGAAAUGUAGUUGACGAGGAGGAGGUUUAUCGAAUUUUCGGCGGAUGCAUCCAAA
## Result 0.000539 s⁻¹

## Task Data request, read-out self-cleavage kobs at 640 uM GlcN6P, for AUAAAAGCGCCAGAACUACAGAAAUGUAGUUGACGAGGAGGAGGUUUAUCGGAUUUUCGGCGGAUGCUUCCAAA
## Result 0.00015 s⁻¹

## Task Data request, read-out self-cleavage kobs at 640 uM GlcN6P, for AUAAAAGAGCCAGAACUACAGAAAUGUAGUUGACGAGGAGGAGGUUUAUCGAAUUUUCGGCGGAUGCCGCCAAA
## Result 0.000846 s⁻¹

## Task Data request, read-out self-cleavage kobs at 640 uM GlcN6P, for AUAAAAGCGCCAGAACUACAGAAAUGUAGUUGACGAGGUGGAGGUUUAUCGAAUUUUCGGCGGAUGCCUCUAAA
## Result 0.00657 s⁻¹

## Task Data request, read-out self-cleavage kobs at 640 uM GlcN6P, for AUAAAAGCGCCAGAACUACAGAAAUGUAGUUGACGAGCAGGAGGAUUAUCGAAUUUUCGGCGGAUGCCUCCAAA
## Result < 1e-05 s⁻¹

## Task Data request, read-out self-cleavage kobs at 640 uM GlcN6P, for AUAAAAGCGCCAGAAAUACAGAAAUGUAGUUGACGAGGAGGAGGUUUAUCGAAUUAUCGGCGGAUGCCUCCAAA
## Result 0.000261 s⁻¹

## Task Data request, read-out self-cleavage kobs at 640 uM GlcN6P, for AUAAAUACGCCAGAACUACAGAAAUGUAGUUGACGAGGAGGAGGUUUAUCGAAUUUUCGGCGGAUGCCUCCAAA
## Result < 1e-05 s⁻¹

## Task Data request, read-out self-cleavage kobs at 640 uM GlcN6P, for AUAAAAGCGCCAGAACUACAGAAAUGUAGUUGACGAGGAGUAGGUUUAUAGAAUUUUCGGCGGAUGCCUCCAAA
## Result < 1e-05 s⁻¹

## Task Data request, read-out self-cleavage kobs at 640 uM GlcN6P, for AUAAAAGCGCGAGAACUACAGAAAUGUAGUUGACGAGGAGGAGGUUUAUCGAAUUUUCGUCGGAUGCCUCCAAA
## Result < 1e-05 s⁻¹

## Task Data request, read-out self-cleavage kobs at 640 uM GlcN6P, for AUAAAAGCCCCAGAACUACAGAAAUGUAGUUGACGAGGAGCAGGUUUAUCGAAUUUUCGGCGGAUGCCUCCAAA
## Result < 1e-05 s⁻¹

## Task Data request, read-out self-cleavage kobs at 640 uM GlcN6P, for AUAAAAGCGCCAGAACUACAGAAAUGUAGUUGACGAGGACGAGGUCUAUCGAAUUUUCGGCGGAUGCCUCCAAA
## Result 0.000304 s⁻¹

## Task Data request, read-out self-cleavage kobs at 640 uM GlcN6P, for AUAAAAGCGCCAGGACUACAGAAAUGUAGUUGACGAGGAGGAGGUGUAUCGAAUUUUCGGCGGAUGCCUCCAAA
## Result 0.00524 s⁻¹

## Task Data request, read-out self-cleavage kobs at 640 uM GlcN6P, for AUAAAAGCGCCAGAACUACAGAAAUGUAGUUGACGAGUAGGAGGUUUGUCGAAUUUUCGGCGGAUGCCUCCAAA
## Result < 1e-05 s⁻¹

## Task Data request, read-out self-cleavage kobs at 640 uM GlcN6P, for AUAAAAGCGCAAGAACUACAGAAAUGUAGUAGACGAGGAGGAGGUUUAUCGAAUUUUCGACGGAUGCCUCCAAA
## Result < 1e-05 s⁻¹
